# Tested on: KU812 cell line;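 further: growth inhibition of KU812 cells, read out with a cell viability assay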
# method: cells
# Type: functional, cell-based, Homo sapiens
# condition_description: Homo sapiens, KU812
# Description: SANGER: Inhibition of human KU812 cell growth in a cell viability assay.
assay_metric: IC50

Consider the worked cases shown below.
O=C(NOC[C@H](O)CO)c1ccc(F)c(F)c1Nc1ccc(I)cc1F : 203 nM
Cc1ccc(NC(=O)c2ccc(CN3CCN(C)CC3)cc2)cc1Nc1nccc(-c2cccnc2)n1 : > 2000 nM
C/C(=C\c1csc(C)n1)[C@@H]1C[C@@H]2O[C@]2(C)CCC[C@H](C)[C@H](O)[C@@H](C)C(=O)C(C)(C)[C@@H](O)CC(=O)O1 : 3.45 nM
O=C1NC(=O)c2c1c(-c1ccccc1Cl)cc1[nH]c3ccc(O)cc3c21 : > 2000 nM

// next item, IC50 requested
Need IC50 of `COc1ccc(N(C(=O)Oc2c(C)cccc2C)c2ccnc(Nc3ccc(N4CCN(C)CC4)cc3)n2)c(OC)c1` , thanks.
> 5120 nM

* * *

# Test system: LOX IMVI
# method: cells
# Type: functional, cell-based, Homo sapiens
# condition_description: Homo sapiens, LOX IMVI
# Description: SANGER: Inhibition of human LOXIMVI cell growth in a cell viability assay.
pIC50: −log10 of the molar value.
Parameter pIC50: see the listing below.

A selection of reference data follows.
NC(=O)c1cccc(-c2cc(Nc3ccc(OC(F)(F)F)cc3)ncn2)c1 : < 5.89
NC(=O)c1ccc(N(C(N)=O)c2c(F)cccc2F)nc1-c1ccc(F)cc1F : < 5.70

Find the recorded pIC50 belonging to `O=S(=O)(O)c1ccc2cc(/N=N/c3cc(S(=O)(=O)O)c4cccnc4c3O)ccc2c1` and report it.
< 4.80

Look up pIC50: `CN(NC(=O)CC(=O)NN(C)C(=S)c1ccccc1)C(=S)c1ccccc1`
6.77

State the recorded pIC50 for this entry: `Cc1ccc(-n2nc(C(C)(C)C)cc2NC(=O)Nc2ccc(OCCN3CCOCC3)c3ccccc23)cc1`
< 5.00

* * *

# Test system: DU-4475
# method: cells
# Type: functional, cell-based, Homo sapiens
# condition_description: Homo sapiens, DU-4475
# Description: SANGER: Inhibition of human DU-4475 cell growth in a cell viability assay.
assay_metric: IC50 (nM)
// return numeric value only (unit: nM, not printed)

NC(=O)Nc1cc(-c2cccc(F)c2)sc1C(=O)N[C@H]1CCCNC1 : 349

Which value of IC50 has been reported for `COc1ccc(-c2cc3nccn3c(Nc3ncccc3C(N)=O)n2)cc1OC` in the records?
2170

* * *

# Tested on: no-10
# method: cells
# Type: functional, cell-based, Homo sapiens
# condition_description: Homo sapiens
# Description: SANGER: Inhibition of human no-10 cell growth in a cell viability assay.
pIC50: −log10 of the molar value.
assay_metric: pIC50

For orientation, consider the following solved cases.
COc1cc(N2CCC(N3CCN(C)CC3)CC2)ccc1Nc1ncc(Cl)c(Nc2ccccc2S(=O)(=O)C(C)C)n1 [TAE-684] : < 5.70
Cc1cc(N2CCOCC2)cc2[nH]c(-c3c(NC[C@@H](O)c4cccc(Cl)c4)cc[nH]c3=O)nc12 : < 5.29
C[C@@H](Oc1cc(-c2cnn(C3CCNCC3)c2)cnc1N)c1c(Cl)ccc(F)c1Cl [CRIZOTINIB] : < 5.70
CC(C)C[C@H](NC(=O)[C@H](Cc1ccccc1)NC(=O)c1cnccn1)B(O)O [BORTEZOMIB] : 9.68
Nc1ccccc1NC(=O)c1ccc(CNC(=O)OCc2cccnc2)cc1 [ENTINOSTAT] : 5.91

If you can, please state the reported pIC50 value of `O=C1NC(=O)c2c1c(-c1ccccc1Cl)cc1[nH]c3ccc(O)cc3c21` .
< 5.70
